Data origin: paper PMC12063055

Test: Solubility studies, shake-flask method with HPLC quantification of HAL
Assay type: physicochemical
Settings: pH 1.2; read-out: solubility in KCl pH 1.2
quantity: solubility at 24 h

Input: Give the measured solubility at 24 h of O=C(CCCN1CCC(O)(c2ccc(Cl)cc2)CC1)c1ccc(F)cc1.O=C(CCCN1CCC(O)(c2ccc(Cl)cc2)CC1)c1ccc(F)cc1.O=C(O)/C=C/C(=O)O.O=C(O)/C=C/C(=O)O [(HAL^+)2·(FU^2–)·(FU)] .
Output: ~1000 µg/mL

###

solubility in KCl pH 1.2 values for the molecules below.
Test: Solubility studies, shake-flask method with HPLC quantification of HAL
Assay type: physicochemical
Settings: buffer KCl (0.2 M) pH 1.2, 24 h stirring at 25 °C, HAL concentration by HPLC at 248 nm
Provide the measurement as a number trailed by its unit.

O=C(CCCN1CCC(O)(c2ccc(Cl)cc2)CC1)c1ccc(F)cc1.O=C(O)CCCC(=O)O: 1.021 ± 0.012 mg/mL
O=C(CCCN1CCC(O)(c2ccc(Cl)cc2)CC1)c1ccc(F)cc1.O=C(CCCN1CCC(O)(c2ccc(Cl)cc2)CC1)c1ccc(F)cc1.O=C(O)c1ccc(C(=O)O)cc1.O=C(O)c1ccc(C(=O)O)cc1: 0.678 ± 0.019 mg/mL

Input: # lookup: solubility in KCl pH 1.2 of O=C(CCCN1CCC(O)(c2ccc(Cl)cc2)CC1)c1ccc(F)cc1.O=C(O)CCCCCC(=O)O
Output: 1.246 ± 0.035 mg/mL

Input: Sample O=C(CCCN1CCC(O)(c2ccc(Cl)cc2)CC1)c1ccc(F)cc1.O=C(CCCN1CCC(O)(c2ccc(Cl)cc2)CC1)c1ccc(F)cc1.O=C(O)CCCCCCC(=O)O.O=C(O)CCCCCCC(=O)O [(HAL^+)2·(SU^2–)·(SU)] — what was its solubility in KCl pH 1.2?
Output: 1.074 ± 0.036 mg/mL
